Value source: PubChem BioAssay AID1918949

System: K24384-001-R-PDC complex spheroid viability;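 further: spheroids exposed to agents for seven days before luminescence viability reading; 100% = DMSO vehicle control viability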
Assay: Anticancer human tumor K24384-001-R-PDC patient-derived pancreatic adenocarcinoma cell line growth inhibition
Settings: second compound 0.316 µM; first compound 1 µM; stronger effect = lower value

- molecule: "Nc1ncn(C2CC(O)C(CO)O2)c(=O)n1 (stereo not given) + NC1CCC(NC2CC2c2ccccc2)CC1"
  viability, T/C (%): 85.1
- molecule: "CC1COCCN1c1cc(-c2ccnn2C)c2ccnc(-c3ccn[nH]3)c2n1 (stereo not given) + NC1CCC(NC2CC2c2ccccc2)CC1"
  viability, T/C (%): 44.4
- molecule: "CC1COCCN1c1cc(C2(S(C)(=N)=O)CC2)nc(-c2ccnc3[nH]ccc23)n1 (stereo not given) + NC1CC1c1ccc(-c2cccc(O)c2)cc1"
  viability, T/C (%): 57.7
- molecule: "O=C(c1cc(Cc2n[nH]c(=O)c3ccccc23)ccc1F)N1CCN(C(=O)C2CC2)CC1 + NC1CC1c1ccc(-c2cccc(O)c2)cc1"
  viability, T/C (%): 77
- molecule: "CC(C)c1c(-c2ccccc2)nc2c(C#N)c[nH]n2c1=O + NC1CC1c1ccc(-c2cccc(O)c2)cc1"
  viability, T/C (%): 86
